// provenance: the supplement of paper PMC11562712

- assay.summary: first-order primary biodegradation rate constant k (sorption-corrected, fDis-corrected) (d-1); higher = faster biodegradation
- condition.details: river segment: Spain (ES) F_Pris_Salt; incubation temperature 24 °C
attribute.measured: first-order primary biodegradation rate constant k

Study these solved cases before continuing.
# compound, value
data = [
    ("NC(=O)c1cn(Cc2c(F)cccc2F)nn1 [Rufinamide]", 0.221),
    ("CCCCc1nc(Cl)c(CO)n1Cc1ccc(-c2ccccc2-c2nnn[nH]2)cc1 [Losartan]", 0.0258),
    ("CO[C@@H]1[C@@H](OC(N)=O)[C@@H](O)[C@H](Oc2ccc3c(O)c(NC(=O)c4ccc(O)c(CC=C(C)C)c4)c(=O)oc3c2C)OC1(C)C [Novobiocin]", 0.145),
]

(I) CC(C)NCC(O)COc1cccc2ccccc12 (stereo not given) [Propranolol]
(II) COCCc1ccc(OCC(O)CNC(C)C)cc1 (stereo not given) [Metoprolol]
Problem: Thinking about recorded first-order primary biodegradation rate constant k values, which is higher, I or II ? Write down the label of the entry you select.
Solution: II
(II: 0.241, I: 0.0162)

###

- assay.summary: first-order primary biodegradation rate constant k (sorption-corrected, fDis-corrected) (d-1); higher = faster biodegradation
- condition.details: river segment: Switzerland (CH) U_Contam; incubation temperature 17 °C
attribute.measured: first-order primary biodegradation rate constant k

# chemical.smiles, value
data = [
    ("COC(=O)Nc1nc2ccccc2[nH]1", 0.0106),
]

(P) C#CCN(C)Cc1ccccc1
(Q) OC(Cn1cncn1)(Cn1cncn1)c1ccc(F)cc1F
(R) CC(C)(C#N)c1cc(Cn2cncn2)cc(C(C)(C)C#N)c1
Problem: List by increasing first-order primary biodegradation rate constant k. Please list each label once, in the requested order.
Solution: Q, R, P
(Q: 0.00361, R: 0.00582, P: 0.596)

###

- assay.summary: first-order primary biodegradation rate constant k (sorption-corrected, fDis-corrected) (d-1); higher = faster biodegradation
- condition.details: river segment: Greece (EL) L_Contam; incubation temperature 19 °C
attribute.measured: first-order primary biodegradation rate constant k

# compound, value
records = [
    ("N#Cc1cc(Br)c(O)c(Br)c1", 0.0249),
]

(a) Cc1cc(C)nc(NS(=O)(=O)c2ccc(N)cc2)n1
(b) c1ccc([C@H]2CN3CCSC3=N2)cc1
(c) CCN(CC)CC(=O)Nc1c(C)cccc1C
Problem: Sort low-to-high on first-order primary biodegradation rate constant k, please. A complete answer lists every label in the requested sequence.
Solution: c, b, a

(a) CC(C)(Oc1ccc(Cl)cc1)C(=O)O
(b) Nc1ccc(S(=O)(=O)Nc2nccs2)cc1
(c) CCOC(=O)c1ccc(O)cc1
(d) CC(C)NCC(O)COc1ccc(COCCOC(C)C)cc1 (stereo not given)
Problem: Arrange these compounds by their first-order primary biodegradation rate constant k, starting with the largest number. // list labels; follow requested order
Solution: d, b, c, a
(d: 1.27, b: 0.81, c: 0.108, a: 0.0249)

(I) Cc1ccc(C(C)NC(=O)[C@@H](NC(=O)OC(C)C)C(C)C)cc1 (stereo not given in full)
(II) Nc1nnc(-c2cccc(Cl)c2Cl)c(N)n1
Problem: Of the two listed items, I and II , which carries the larger first-order primary biodegradation rate constant k figure? Which one? Tell me its label.
Solution: I
(I: 0.096, II: 0.0519)
